experiment_summary: yeast display, Sf9 membrane polyspecificity reagent, FACS + sequencing; frameworks hold sequencing errors

>  <macromolecule_sequence>
QVQLVESGGGLVQAGGSLRLSCAASGSIFGYYTMGWYRQAPGKERELVAAITSGGSTNYADSVKGRFTISRDNAKNTVYLQMNSLKPEETAVYYCAKVSYYTWRYDYWGQGTQVTVSS

>  <polyreactivity (PSR sort gate)>
low polyreactivity

$$$$
>  <macromolecule_sequence>
QVQVVESGGGLVQAGGSLSLSCAASGSTVGKYAMGWYRPAPGKERELVASITWSGASTFYADSVKGRFTISRDTAKTTVYLQLNSLKPEDTAVYYCAARSYKSYYIFDYWGQGTQVTVSS

>  <polyreactivity (PSR sort gate)>
low polyreactivity

$$$$

====

experiment_summary: yeast display, Sf9 membrane polyspecificity reagent, FACS + sequencing; frameworks hold sequencing errors

>  <macromolecule_sequence>
QVQLVESGGGLVQAGGSLRLSCAASGSNFNYYTMGWYRQAPGKERELVAAISYRGGRTYYADSVKGRFTISRDTSKNTVYLQMNSLKPEDTAVYYCNAVTRIYEVDYWGQGTQVTVSS

>  <polyreactivity (PSR sort gate)>
high polyreactivity

$$$$
>  <macromolecule_sequence>
QVQLVESGGVLVQAGGSLRLSCAASGLTFSWYAMGWYRQAPGKERELVASINYSGANTYYADSVKGRFTISRDNAQNTVFLQMNSLKPEDTAVYYCNSRLRRYQNERVTYDYWGQGTQVTVSS

>  <polyreactivity (PSR sort gate)>
high polyreactivity

$$$$
>  <macromolecule_sequence>
QVQLVESGGGLVQAGGSLRLSCAASGLTFYTNAMGWYRQAPGKERELVAAITSSGGRTYYADSVKGRFTISRDNAKNTVYLQMNILKPEDTAVYYCAADALRPRIPEMYYWGQGTQVTVSS

>  <polyreactivity (PSR sort gate)>
high polyreactivity

$$$$
>  <macromolecule_sequence>
QVQLVESGGGLVQAGGSLRLSCAASGRIFVPYAMGWYRQAPGKERELVAAISWRGGSTNYADSVKGRFTISRDNAKNTVYLQMNSLKPEDTAVYYCAAVPVRYRYSYGYYYWGQGTQVTVSS

>  <polyreactivity (PSR sort gate)>
high polyreactivity

$$$$
>  <macromolecule_sequence>
QVQLVESGGGLVQAGGSLRLSCAASGSIFSYYAMGWYRQAPGKERELVAAISVSGGRTYYADSVKGRFTISRDNAKNTVYLQMNSLKPEDTAVYYCATRIRSYYYWGQGTQVTVSS

>  <polyreactivity (PSR sort gate)>
high polyreactivity

$$$$
>  <macromolecule_sequence>
QVQLVESGGGLVQAGGSLRLTCAASGRTFRPYDMGWYRQAPGKQRELVATITTNGGSTYYADSVKGRFTISRDNAMNTVYLQMTSLKPEDTAGYYCATDNSWPTYHYDGGYYWGQGTQVTVSS

>  <polyreactivity (PSR sort gate)>
low polyreactivity

$$$$
>  <macromolecule_sequence>
QVQLVESGGGLVQAGGSSRLSCAASGRTFDDYAMGWYRQAPATERELVAAISSRGGSTYYADSVKGRFTISRDNAKHTVYLQMNSLKPEDTAVYYSNTLQSSHGSSQYDSWGQGTQVTVSS

>  <polyreactivity (PSR sort gate)>
low polyreactivity

$$$$
>  <macromolecule_sequence>
QVQLVESGGGLVQAGGSLRLSCAASGRIFVDNTMGWYRQAPGKERELVAAISRRGTSTYYADSVKGRFTISRDTAKNTVFLQMNSLNPEDTAVYYCAADYYYYDSQQGMDYWGQGTQVTVSS

>  <polyreactivity (PSR sort gate)>
high polyreactivity

$$$$
>  <macromolecule_sequence>
QVQLVESGGGLVQAGGSLRLSCDASGGIFRFNSMGWYRQAPGKERELVAGISSTYYADSVKGRFTISRDNAKNTVYLQMNSLKPEDTAVYYCAAAGPEEHGYTYPGNNQMESWGQGTQVTVSS

>  <polyreactivity (PSR sort gate)>
low polyreactivity

$$$$
>  <macromolecule_sequence>
QVQLVESGGGLVQAGGSLRLSCAASGSIFWRNAMGWYRQAPGKERELVAAITSGGSTYYADSVKGRFTISRDNAKNTVYLQMNSLNPEDTAVYYCAAGYSYRYGYWGQGTQVTVSS

>  <polyreactivity (PSR sort gate)>
low polyreactivity

$$$$
>  <macromolecule_sequence>
QVQLVESGGGLVQAGGSLRLSCAASGRTFLKYTLGWYRQAPGKERELVAAISGSGGSTYYADSVKGRFTISRDNAKNTVYLQMNSLKPEDTAVYYCAAAIVRHYQTGYYWGQGTQVTVSS

>  <polyreactivity (PSR sort gate)>
high polyreactivity

$$$$
